Each record here notes measured fold change of affinity.
Molecular target: T1, Human CD3eg linker (human)
T1 construct: Single-chain construct; also called recombinant human CD3
T1 chain: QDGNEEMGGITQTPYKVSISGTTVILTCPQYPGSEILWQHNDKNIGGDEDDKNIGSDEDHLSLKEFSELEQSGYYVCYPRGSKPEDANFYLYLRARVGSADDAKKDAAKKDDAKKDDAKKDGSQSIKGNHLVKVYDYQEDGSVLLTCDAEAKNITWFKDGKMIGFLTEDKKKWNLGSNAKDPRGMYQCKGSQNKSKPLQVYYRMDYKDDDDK
Assay: SPR; fold vs parent H183/L072
ASSAY_ENDPOINT: fold change of affinity (fold)

{"columns": ["BINDER", "MEASURED"],
 "data": [
  ["H183/L072 VL T92G (antibody, name in Kabat numbering, V domains shown) VH: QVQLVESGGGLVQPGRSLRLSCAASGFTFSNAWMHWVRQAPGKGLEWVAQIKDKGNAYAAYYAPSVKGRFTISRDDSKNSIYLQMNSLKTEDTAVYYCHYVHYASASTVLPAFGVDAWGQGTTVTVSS VL: DIVMTQSPLSLPVTPGEPASISCQASQELVHMNRNTYLHWYQQKPGQAPRLLIYKVSNRFPGVPDRFSGSGSGTDFTLKISRVEAEDVGVYYCAQGGSVPFTFGQGTKLEIK", 0.2],
  ["H183/L072 VL P56D (antibody, name in Kabat numbering, V domains shown) VH: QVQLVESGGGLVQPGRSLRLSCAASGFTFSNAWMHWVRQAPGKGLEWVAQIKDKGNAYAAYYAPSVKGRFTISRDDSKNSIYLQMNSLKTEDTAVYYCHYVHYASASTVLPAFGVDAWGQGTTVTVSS VL: DIVMTQSPLSLPVTPGEPASISCQASQELVHMNRNTYLHWYQQKPGQAPRLLIYKVSNRFDGVPDRFSGSGSGTDFTLKISRVEAEDVGVYYCAQGTSVPFTFGQGTKLEIK", 3],
  ["H183/L072 VL N30Q (antibody, name in Kabat numbering, V domains shown) VH: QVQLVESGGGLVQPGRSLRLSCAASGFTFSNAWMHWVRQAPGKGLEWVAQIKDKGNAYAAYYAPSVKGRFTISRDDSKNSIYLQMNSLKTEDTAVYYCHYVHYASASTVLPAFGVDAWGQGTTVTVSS VL: DIVMTQSPLSLPVTPGEPASISCQASQELVHMNRQTYLHWYQQKPGQAPRLLIYKVSNRFPGVPDRFSGSGSGTDFTLKISRVEAEDVGVYYCAQGTSVPFTFGQGTKLEIK", 1.2]
]}

All figures here come from patent US20210388087A1.
